- PROTOCOL SUMMARY: single intravenous dose-escalation clinical trial, pharmacokinetics
- Type: in vivo
- EXPERIMENTAL CONDITIONS: human, blood; healthy adults, single intravenous 20 mg
ASSAY METRIC: half-life (h)

SMILES STRUCTURE	UNIT INFO	DATA VALUE
CNCc1cn(S(=O)(=O)c2cccc(F)c2)c(-c2ccc(F)cc2F)c1OC	h	8.61

###

- PROTOCOL SUMMARY: single intravenous dose-escalation clinical trial, pharmacokinetics
- Type: in vivo
- EXPERIMENTAL CONDITIONS: human, blood; healthy adults, single intravenous 10 mg
ASSAY METRIC: AUC(0-inf) (ng·h/mL)

SMILES STRUCTURE	DATA VALUE
CNCc1cn(S(=O)(=O)c2cccc(F)c2)c(-c2ccc(F)cc2F)c1OC	240
